Cited source for all entries: paper PMC10641755

target: ClpG N1 core domain (N1∗), residues 1 to 46 (Pseudomonas aeruginosa, 15N (13C) isotope labelled for NMR); test: NMR titration; unlabeled peptide 134 titrated to 15N-labeled N1∗ (80 μM N1∗, up to 240 μM peptide), 1H,15N-HSQC chemical shift perturbations, 298 K, 50 mM NaH2PO4 pH 6.5, 50 mM KCl, 2 mM DTT; settings: both partners purified
Property: Kd

Look up Kd for this binder: CWFLRYLKASKVPLN (Unlabeled peptide) [Peptide 134]
> 50 µM
